Values were extracted from PubChem BioAssay (NCI).

- Test system: HL-60(TB) leukemia
- method summary: NCI tumour cell line growth inhibition, 48 h
Assign a class from recorded TGI; defined classes: bin A (below 30 µM), bin B (30 µM to below 60 µM), bin C (60 µM or more)

Assign a category based on measured TGI for C=CC1(NS(=O)(=O)c2ccc(C)cc2)CCC(C(C)(C)C)CC1 (centres undefined) and give only the class name.
bin C

Please give the result for COc1cc(-c2cc(/C=C/C(=O)c3ccc(Cl)c(Cl)c3)[nH]n2)cc(OC)c1OC too.
bin B

Please give the result for Nc1c(N2CCOCC2)c(=O)nc2[nH]/c(=C\c3ccccc3)c(=O)n12 too.
bin B

----------
- Test system: U251 CNS
- method summary: NCI tumour cell line growth inhibition, 48 h
property: TGI

Example results:
>>> print(df.to_string())
                                   compound  property  reported_value
0  O=C(O)CNn1c(SCC(=O)O)nnc(/C=C/c2c(O)ccc3ccccc23)c1=O       TGI        > 100 µM
1  Cc1c(N/C=C(\C#N)C(=O)c2ccc(Cl)cc2)c(=O)n(-c2ccccc2)n1C       TGI        > 100 µM
2  CC(=O)C1=C(C)N(C)C2(O)C=CC(=O)C3=C(O)c4ccccc4C(=O)C312 (centres undefined)       TGI         31.4 µM
3           Clc1ccc2nc(-c3ccccc3)nc(Cl)c2c1       TGI        > 100 µM
4  COc1ccccc1N=N/C(=N\NC(=O)c1ccc(C)cc1)c1ccc(N(CCC#N)CCC#N)cc1C       TGI        > 100 µM

Fill in the blank: the reported TGI of Cc1ccc(/C=C2\CCCC(CN(C)C)C2=O)cc1 (centres undefined) is ____.
26.4 µM

Please give the result for O=c1[nH]nc(Cn2c3ccc(Br)cc3c3nc4ccccc4nc32)n1C1CCCCC1 too.
> 100 µM

Please give the result for C/C(=N\NC(=S)N1CC2CCC(CC2)C1)c1cccc(C)n1 too.
11.8 µM

Please give the result for C[CH2][Ge]([CH2]C)([CH2]C)[O]C(=O)CCC(=O)[O][Ge]([CH2]C)([CH2]C)[CH2]C too.
> 100 µM

Please give the result for Cc1ccc(NC(=S)SCCC(=O)O)cc1 too.
> 100 µM

Please give the result for N=C(N)c1ccc(NCCOCCNc2ccc(C(=N)N)cc2)cc1 too.
> 100 µM

Please give the result for Cc1[nH]nc2c1N=C(c1ccccc1F)c1cc(C(N)=O)ccc1N2 too.
10.2 µM

Please give the result for O=C(Nc1cc(Cl)cc(Cl)c1)/C(Cc1nc2ccccc2[nH]c1=O)=N/NC(=O)c1ccncc1 too.
> 100 µM

Please give the result for CCOC(=O)c1nc2ccccc2nc1Oc1cc(OC)c(OC)c(OC)c1 too.
99.4 µM

----------
- System: UACC-62 melanoma
- method summary: NCI tumour cell line growth inhibition, 48 h; in the data active means GI50 below about 0.43 µM; inactive means the rest
# output must be one of true (1) (active), false (0) (inactive)

In [3]: df
Out[3]:
                                   compound      class
0  CCOC(=O)c1c(C)nc2c(c1N)CC(=O)N2CCc1ccccc1  false (0)
1  CCN(CC)CCN(Cc1ccc(F)cc1)c1ccc(CO)c(Cl)c1  false (0)
2                   O=S1(=O)CS(=O)(=O)OCCO1  false (0)

Hey, what did the test say about Cn1c2ccccc2c2c3[nH][nH]c(=O)c3c3c4ccccc4[nH]c3c21 ?
false (0)

Please give the result for CC(=O)C1=C(C)N(C)C2(O)C=CC(=O)C3=C(O)c4ccccc4C(=O)C312 (stereo not given) too.
false (0)

Please give the result for CCCCC(=O)N/N=C/c1c(O)ccc2ccccc12 too.
false (0)

Please give the result for COc1ccc(/C=C2\CN(Cc3cn(CCNc4ccnc5cc(Cl)ccc45)nn3)C/C(=C\c3ccc(OC)c(OC)c3)C2=O)cc1OC too.
false (0)

Please give the result for CC(C)n1nc(-c2ccc3oc(N)nc3c2)c2c(N)ncnc21 too.
true (1)

Please give the result for CCCCNC(=O)c1cc(NCc2cc(O)ccc2O)ccc1O too.
false (0)

Please give the result for Nc1nc(N)c2c(n1)NC(c1ccccc1)C1CCc3ccccc3C1=N2 (stereo not given) too.
false (0)
